# System: Haemophilus influenzae
# ASSAY_EXPLANATION: Antimicrobial activity against gBLNAS Haemophilus influenzae by agar dilution method
# Assay type: functional
Listed compounds paired with reported log10 MIC50
PARAMETER: log10 MIC50 (log10 of the value in mg/L)

| SMILES_RECORD | SYSTEM_UNDER_TEST | log10 MIC50 |
| --- | --- | --- |
| CC1(C)S[C@@H]2[C@H](NC(=O)[C@H](N)c3ccc(O)cc3)C(=O)N2[C@H]1C(=O)O | Haemophilus influenzae | -0.30 |
| C=CC1=C(C(=O)O)N2C(=O)[C@@H](NC(=O)/C(=N\O)c3csc(N)n3)[C@H]2SC1 | Haemophilus influenzae | -0.60 |
| C[C@@H](O)[C@H]1C(=O)N2C(C(=O)O)=C(SC3CN(C4=NCCS4)C3)[C@H](C)[C@H]12 | Haemophilus influenzae | -1.20 |
| CC[C@H]1OC(=O)[C@H](C)[C@@H](O[C@H]2C[C@@](C)(OC)[C@@H](O)[C@H](C)O2)[C@H](C)[C@@H](O[C@@H]2O[C@H](C)C[C@H](N(C)C)[C@H]2O)[C@](C)(O)C[C@@H](C)CN(C)[C@H](C)[C@@H](O)[C@]1(C)O | Haemophilus influenzae | 0.30 |
| CC1(C)S[C@@H]2[C@H](NC(=O)[C@H](N)c3ccccc3)C(=O)N2[C@H]1C(=O)O | Haemophilus influenzae | -0.60 |
| CO/N=C(\C(=O)N[C@@H]1C(=O)N2C(C(=O)O)=C(COC(C)=O)CS[C@H]12)c1csc(N)n1 | Haemophilus influenzae | -1.80 |
| C[C@@H](O)[C@H]1C(=O)N2C(C(=O)O)=C(S[C@@H]3CN[C@H](C(=O)N(C)C)C3)[C@H](C)[C@H]12 | Haemophilus influenzae | -1.20 |
| CC[C@H]1OC(=O)[C@H](C)[C@@H](O[C@H]2C[C@@](C)(OC)[C@@H](O)[C@H](C)O2)[C@H](C)[C@@H](O[C@@H]2O[C@H](C)C[C@H](N(C)C)[C@H]2O)[C@](C)(OC)C[C@@H](C)C(=O)[C@H](C)[C@@H](O)[C@]1(C)O | Haemophilus influenzae | 0.90 |

* * *

# Test system: Haemophilus influenzae
# ASSAY_EXPLANATION: Antimicrobial activity against gBLPACR-1 Haemophilus influenzae by agar dilution method
# Type: functional

| SMILES_RECORD | MIC (µg/mL) |
| --- | --- |
| C[C@@H](O)[C@H]1C(=O)N2C(C(=O)O)=C(SC3CN(C4=NCCS4)C3)[C@H](C)[C@H]12 | 0.12 |
| C=CC1=C(C(=O)O)N2C(=O)[C@@H](NC(=O)/C(=N\O)c3csc(N)n3)[C@H]2SC1 | 1 |
| CC1(C)S[C@@H]2[C@H](NC(=O)[C@H](N)c3ccccc3)C(=O)N2[C@H]1C(=O)O | 8 |
| CC[C@H]1OC(=O)[C@H](C)[C@@H](O[C@H]2C[C@@](C)(OC)[C@@H](O)[C@H](C)O2)[C@H](C)[C@@H](O[C@@H]2O[C@H](C)C[C@H](N(C)C)[C@H]2O)[C@](C)(OC)C[C@@H](C)C(=O)[C@H](C)[C@@H](O)[C@]1(C)O | 8 |
| CC[C@H]1OC(=O)[C@H](C)[C@@H](O[C@H]2C[C@@](C)(OC)[C@@H](O)[C@H](C)O2)[C@H](C)[C@@H](O[C@@H]2O[C@H](C)C[C@H](N(C)C)[C@H]2O)[C@](C)(O)C[C@@H](C)CN(C)[C@H](C)[C@@H](O)[C@]1(C)O | 2 |
| C[C@@H](O)[C@H]1C(=O)N2C(C(=O)O)=C(S[C@@H]3CN[C@H](C(=O)N(C)C)C3)[C@H](C)[C@H]12 | 0.063 |
| CO/N=C(\C(=O)N[C@@H]1C(=O)N2C(C(=O)O)=C(COC(C)=O)CS[C@H]12)c1csc(N)n1 | 0.031 |
| CC1(C)S[C@@H]2[C@H](NC(=O)[C@H](N)c3ccc(O)cc3)C(=O)N2[C@H]1C(=O)O | 8 |

* * *

# System: Haemophilus influenzae
# ASSAY_EXPLANATION: Antimicrobial activity against gBLNAR Haemophilus influenzae by agar dilution method
# Type: functional
PARAMETER: MIC50 (µg/mL)

| SMILES_RECORD | DISPLAY_UNIT | ENDPOINT_VALUE |
| --- | --- | --- |
| CC1(C)S[C@@H]2[C@H](NC(=O)[C@H](N)c3ccc(O)cc3)C(=O)N2[C@H]1C(=O)O | µg/mL | 8 |
| C=CC1=C(C(=O)O)N2C(=O)[C@@H](NC(=O)/C(=N\O)c3csc(N)n3)[C@H]2SC1 | µg/mL | 8 |
| CC1(C)S[C@@H]2[C@H](NC(=O)[C@H](N)c3ccccc3)C(=O)N2[C@H]1C(=O)O | µg/mL | 2 |
| CC[C@H]1OC(=O)[C@H](C)[C@@H](O[C@H]2C[C@@](C)(OC)[C@@H](O)[C@H](C)O2)[C@H](C)[C@@H](O[C@@H]2O[C@H](C)C[C@H](N(C)C)[C@H]2O)[C@](C)(OC)C[C@@H](C)C(=O)[C@H](C)[C@@H](O)[C@]1(C)O | µg/mL | 8 |
| C[C@@H](O)[C@H]1C(=O)N2C(C(=O)O)=C(S[C@@H]3CN[C@H](C(=O)N(C)C)C3)[C@H](C)[C@H]12 | µg/mL | 0.25 |
| CC[C@H]1OC(=O)[C@H](C)[C@@H](O[C@H]2C[C@@](C)(OC)[C@@H](O)[C@H](C)O2)[C@H](C)[C@@H](O[C@@H]2O[C@H](C)C[C@H](N(C)C)[C@H]2O)[C@](C)(O)C[C@@H](C)CN(C)[C@H](C)[C@@H](O)[C@]1(C)O | µg/mL | 2 |
| CO/N=C(\C(=O)N[C@@H]1C(=O)N2C(C(=O)O)=C(COC(C)=O)CS[C@H]12)c1csc(N)n1 | µg/mL | 0.5 |
| C[C@@H](O)[C@H]1C(=O)N2C(C(=O)O)=C(SC3CN(C4=NCCS4)C3)[C@H](C)[C@H]12 | µg/mL | 0.25 |
